target: Ubiquitin-activating enzyme e1, putative (Leishmania donovani (strain BPK282A1)); assay: Leishmania donovani Ubiquitin Activating Enzyme (LdE1); type: functional; parameters: scale not given: direction of the effect not stated beside the values; settings: 30 µM
Potency and affinity values are given separately.
measured-endpoint: Percent Effect (%)
Your answer should be a plain number; it is taken to be in %.

Cc1ccc(NC(=O)C2=CN=S=N2)cc1	17.3
Cc1nccc(-c2cccc(NCC(=O)N3CCc4sccc4C3)c2)n1	2.63
Cc1nc(N2CCOCC2)nc2c1CCN(C(=O)NC1CCCC1)CC2	6.67

[Q] Provide Percent Effect, tested on Ubiquitin-activating enzyme e1, putative (Leishmania donovani (strain BPK282A1)), for CC1CCCN(C(=O)c2cccc(CS(C)(=O)=O)c2)C1 (stereo not drawn) .
[A] 15.4

[Q] Provide Percent Effect, tested on Ubiquitin-activating enzyme e1, putative (Leishmania donovani (strain BPK282A1)), for CCS(=O)(=O)N1CCCc2ccc(NC(=O)Cc3ccc(F)cc3)cc21 .
[A] 7.79

[Q] Provide Percent Effect, tested on Ubiquitin-activating enzyme e1, putative (Leishmania donovani (strain BPK282A1)), for COCCN1C[C@@H]2CN(Cc3cccc(F)c3)CCC[C@]2(C(=O)O)C1 .
[A] 0

[Q] Provide Percent Effect, tested on Ubiquitin-activating enzyme e1, putative (Leishmania donovani (strain BPK282A1)), for O=C(NCCOc1ccc2c(c1)OCO2)N1CCC1 .
[A] 20.8

[Q] Provide Percent Effect, tested on Ubiquitin-activating enzyme e1, putative (Leishmania donovani (strain BPK282A1)), for OC(CNCCn1cccn1)c1ccc2c(c1)OCCO2 (stereo not drawn) .
[A] 13.3

[Q] Provide Percent Effect, tested on Ubiquitin-activating enzyme e1, putative (Leishmania donovani (strain BPK282A1)), for CC(C)N1CCN(C(=O)Nc2cnn(CC(N)=O)c2)CC1 .
[A] 17.9

[Q] Provide Percent Effect, tested on Ubiquitin-activating enzyme e1, putative (Leishmania donovani (strain BPK282A1)), for CC1CCN(c2ncc3c(n2)CN(c2ccccc2)C3=O)CC1 .
[A] 5.2

[Q] Provide Percent Effect, tested on Ubiquitin-activating enzyme e1, putative (Leishmania donovani (strain BPK282A1)), for Cc1cc(C)n(CC2CCCCN2C(=O)c2cnn(C)c2)n1 (stereo not drawn) .
[A] 8

[Q] Provide Percent Effect, tested on Ubiquitin-activating enzyme e1, putative (Leishmania donovani (strain BPK282A1)), for Cc1cnn(C2CN(Cc3nc(-c4ccco4)no3)C2)c1 .
[A] 13

From: ChEMBL document CHEMBL3988442
